Test: Clearance in rat at 4 umol/kg, iv
Format: ADME, organism-based
Conditions: in vivo
experimental readout: clearance (mL/min/kg)
Kindly provide the numeric value in mL/min/kg only, without the unit symbol.

- smiles repr: "COc1ccc(-c2ccc3c(N4CCOC[C@@H]4C)nc(N4CCOC[C@@H]4C)nc3n2)cc1CO"
  clearance / mL/min/kg: 36.6

Here is the next item to consider.
*Q* Dear colleague, please send me the reported clearance for CNC(=O)c1cccc(-c2ccc3c(N4CCOC[C@@H]4C)nc(N4CCOC[C@@H]4C)nc3n2)c1 when you can.
*A* 12.6

* * *

Test: Oral bioavailability in rat
Settings: in vivo
Quick list: bioavailability per entry.
Kindly provide the numeric value in % only, without the unit symbol.

- smiles repr: "CNC(=O)c1cccc(-c2ccc3c(N4CCOC[C@@H]4C)nc(N4CCOC[C@@H]4C)nc3n2)c1"
  measurement unit: "%"
  bioavailability: 40

Here is the next item to consider.
*Q* Dear colleague, please send me the reported bioavailability for COc1ccc(-c2ccc3c(N4CCOC[C@@H]4C)nc(N4CCOC[C@@H]4C)nc3n2)cc1CO when you can.
*A* 12
